# Tested on: MCF7 breast
# assay-explanation: NCI-60 one-dose screen, 48 h (100 = growth as untreated, 0 = no growth, -100 = all killed)
# condition-parameters: 10 µM
# Protocol: Growth inhibition of the MCF7 human tumor cell line is measured as a screen for anti-cancer activity. Cells are grown in 96 well plates and exposed to the test compound for 48 hours. Compounds are tested at a single concentration, which is 10^-5 M for most compounds. The reported endpoint is percent growth (GI% or GIPRCNT), where numbers from 0 - 100% represent growth inhibition, and numbers from -100% - 0 represent cell death. For example, a value of 40 represents 60% growth inhibition. […]
About 83,000 compounds went through this panel and 20% of them were active in at least one assay; those are over-represented in the sample as a whole. Active and inactive are the calls of the source. The calls were made as follows: active = growth percent below 10; inactive = the rest.
Would you mind telling me the reported growth of each entry?

IN: # growth lookup, item "CC[N+](CC)=c1ccc2nc3c(cc(N)c4ccccc43)oc-2c1"
OUT: -46.3% (active)

IN: // lookup growth for "CCCCCCCCCCCC[N+](C)(C)Cc1ccccc1"
OUT: 15.1% (inactive)

IN: Form field: reported growth of "CCO/C=C1\SC(=S)N(c2cccc(O)c2)C1=O"
OUT: 84.1% (inactive)

----------
# Test system: OVCAR-4 ovarian
# assay-explanation: NCI-60 one-dose screen, 48 h (100 = growth as untreated, 0 = no growth, -100 = all killed)
# condition-parameters: 10 µM
About 83,000 compounds went through this panel and 20% of them were active in at least one assay; those are over-represented in the sample as a whole.
property-measured: growth (%)
API: value field is a number in %; no unit string.

IN: Need growth of "COc1ccc(CC(=O)c2ccc(O)cc2O)cc1" , thanks.
OUT: 99.2

IN: Look up growth: COC(=O)C1C(O)C(C)C(O)C(C)C=C(C)C2=C3C(=C(C)C(=O)c4c(O)c(c(C)c(OC(C)=O)c43)NC(=O)C(C)=C/C=C\C(C)C(O)C(C)C1O)OCO2 (stereo not given)
OUT: 108

IN: Can you share its growth? I mean this compound: "O=[N+]([O-])C1=C(c2ccccc2)SC=C(c2ccccc2)S1"
OUT: 87.4

IN: Please report the recorded growth for "CCCCCCCCCCCC[N+](C)(C)Cc1ccccc1" .
OUT: 3.85

IN: For the compound shown here, "O=C(/C=C/c1cccnc1)c1ccccc1" , give the reported growth.
OUT: 91.7

IN: Recorded growth for OCC(O)C(O)C(O)C(/C=N/Nc1ccccc1)=N/Nc1ccccc1 (stereo not given) , please?
OUT: 93.1

IN: Query: growth; subject: COc1cccc2c1C(=O)c1c(O)c3c(c(O)c1C2=O)C[C@@](O)(C(C)=O)C[C@@H]3OC1CC(N)C(O)C(C)O1 (stereo not given in full)
OUT: -3.17

IN: Which value of growth has been reported for "NNc1c2ccccc2nc2ccccc12" in the records?
OUT: 34.4

IN: Name the recorded growth for CC(=O)OCC(OC(C)=O)C(OC(C)=O)C(OC(C)=O)C(OC(C)=O)C(/C=N/Nc1ccccc1)=N/Nc1ccccc1 (stereo not given) .
OUT: 82.6

IN: Recorded growth of OC(CN1CCCC2CCCCC21)c1cc2ccccc2c2ccccc12 (stereo not given) , please.
OUT: 29.1

----------
# Test system: SNB-75 CNS
# assay-explanation: NCI-60 one-dose screen, 48 h (100 = growth as untreated, 0 = no growth, -100 = all killed)
# condition-parameters: 10 µM
# Method: Growth inhibition of the SNB-75 human tumor cell line is measured as a screen for anti-cancer activity. Cells are grown in 96 well plates and exposed to the test compound for 48 hours. Compounds are tested at a single concentration, which is 10^-5 M for most compounds. The reported endpoint is percent growth (GI% or GIPRCNT), where numbers from 0 - 100% represent growth inhibition, and numbers from -100% - 0 represent cell death. For example, a value of 40 represents 60% growth inhibition. […]
This is part of a sample that, as a whole, favours compounds with a hit. Of some 83,000 tested, about 20% had one in any assay.
property-measured: growth (%)
Entry rule: numbers only, all in %.

IN: Suppose we examine the compound CC(=O)OCC(OC(C)=O)C(OC(C)=O)C(OC(C)=O)C(OC(C)=O)C(/C=N/Nc1ccccc1)=N/Nc1ccccc1 (stereo unspecified) ; what growth value has been reported?
OUT: 87.4

IN: # lookup: growth of "O=C(/C=C/c1cccnc1)c1ccccc1"
OUT: 87.8

IN: Find the recorded growth belonging to "O=C1C=C(O)c2ccccc2C1=O.[Ag]" and report it.
OUT: 87.9

IN: Name the recorded growth for "NC(=O)SCC(=O)NNc1ccccc1" .
OUT: 92.5

IN: Reported growth, compound "CC1=CC(C)=Nc2ccc(Cl)cc2N1" : ____
OUT: 90.4

IN: # lookup: growth of COC(=O)C1C(O)C(C)C(O)C(C)C=C(C)C2=C3C(=C(C)C(=O)c4c(O)c(c(C)c(OC(C)=O)c43)NC(=O)C(C)=C/C=C\C(C)C(O)C(C)C1O)OCO2 (stereo unspecified)
OUT: 90
